- SUBJECT_OF_TEST: UniProt:P10275
- EXPERIMENT_SUMMARY: Displacement of [3H]DHT from human recombinant AR expressed in Sf9 cells

INPUT_SMILES	RESULT_UNITS	QUALIFIER	IC50
COC(=O)COc1ccccc1-c1ccc(C#N)c(C(F)(F)F)c1	µM	=	1.31
Cc1ccccc1-c1ccc(C#N)c(C(F)(F)F)c1	µM	=	0.146
N#Cc1ccc(-c2ccccc2OCC(=O)O)cc1C(F)(F)F	µM	>	10
COc1cccc(-c2ccc(C#N)c(C(F)(F)F)c2)c1	µM	=	0.955
Cc1ccc(-c2ccc(C#N)c(C(F)(F)F)c2)cc1	µM	=	0.2
N#Cc1ccc(-c2ccccc2Cl)cc1C(F)(F)F	µM	=	0.0098
COc1cccc(OC)c1-c1ccc(C#N)c(C(F)(F)F)c1	µM	=	0.0147
COc1ccccc1-c1ccc(C#N)c(C(F)(F)F)c1	µM	=	0.037
N#Cc1ccc(-c2ccccc2OCCO)cc1C(F)(F)F	µM	=	1.54
Cc1cccc(-c2ccc(C#N)c(C(F)(F)F)c2)c1	µM	=	1.9
COCCOCCOc1ccccc1-c1ccc(C#N)c(C(F)(F)F)c1	µM	=	8.14
COc1ccc(-c2ccc(C#N)c(C(F)(F)F)c2)cc1	µM	=	0.0567

###

- SUBJECT_OF_TEST: Androgen receptor (Homo sapiens, UniProt P10275)
- Sequence (P10275 whole entry): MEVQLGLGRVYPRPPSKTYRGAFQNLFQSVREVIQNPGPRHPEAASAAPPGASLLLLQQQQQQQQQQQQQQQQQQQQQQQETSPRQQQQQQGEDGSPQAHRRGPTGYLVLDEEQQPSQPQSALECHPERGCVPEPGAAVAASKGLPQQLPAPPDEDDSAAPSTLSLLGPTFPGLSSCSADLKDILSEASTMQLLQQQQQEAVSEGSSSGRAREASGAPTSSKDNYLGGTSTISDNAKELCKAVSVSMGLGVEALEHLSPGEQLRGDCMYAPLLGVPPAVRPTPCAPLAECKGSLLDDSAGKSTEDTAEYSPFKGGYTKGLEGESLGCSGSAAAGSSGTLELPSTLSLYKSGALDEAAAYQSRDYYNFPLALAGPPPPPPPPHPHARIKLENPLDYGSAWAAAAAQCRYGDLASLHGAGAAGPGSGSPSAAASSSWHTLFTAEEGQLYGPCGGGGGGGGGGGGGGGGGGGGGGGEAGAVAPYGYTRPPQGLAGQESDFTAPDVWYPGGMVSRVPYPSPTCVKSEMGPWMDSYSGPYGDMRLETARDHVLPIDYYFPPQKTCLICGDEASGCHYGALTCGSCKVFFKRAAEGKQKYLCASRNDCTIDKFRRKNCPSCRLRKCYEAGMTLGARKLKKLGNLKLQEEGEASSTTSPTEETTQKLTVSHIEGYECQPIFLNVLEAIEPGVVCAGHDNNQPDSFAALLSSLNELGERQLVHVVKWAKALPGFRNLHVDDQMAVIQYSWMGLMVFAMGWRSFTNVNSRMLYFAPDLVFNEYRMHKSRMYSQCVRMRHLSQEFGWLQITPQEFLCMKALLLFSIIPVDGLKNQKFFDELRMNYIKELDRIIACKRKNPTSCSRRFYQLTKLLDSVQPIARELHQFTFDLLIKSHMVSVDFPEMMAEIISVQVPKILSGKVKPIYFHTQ
- EXPERIMENT_SUMMARY: Displacement of [3H]DHT from human recombinant AR expressed in Sf9 cells
pIC50: −log10 of the molar value.
Label TRUE when pIC50 >= 7; otherwise FALSE.

INPUT_SMILES	SUBJECT_OF_TEST	QUALITATIVE_LABEL
N#Cc1ccc(-c2ccccc2C(F)(F)F)cc1C(F)(F)F	Androgen receptor (Homo sapiens, UniProt P10275)	TRUE
N#Cc1ccc(-c2cccc(O)c2)cc1C(F)(F)F	Androgen receptor (Homo sapiens, UniProt P10275)	FALSE
COCCOc1ccccc1-c1ccc(C#N)c(C(F)(F)F)c1	Androgen receptor (Homo sapiens, UniProt P10275)	FALSE
N#Cc1ccc(-c2c(O)cccc2O)cc1C(F)(F)F	Androgen receptor (Homo sapiens, UniProt P10275)	FALSE
N#Cc1ccc(-c2ccccc2O)cc1C(F)(F)F	Androgen receptor (Homo sapiens, UniProt P10275)	TRUE

###

- SUBJECT_OF_TEST: Progesterone receptor (Homo sapiens)
- Sequence (P06401 whole entry): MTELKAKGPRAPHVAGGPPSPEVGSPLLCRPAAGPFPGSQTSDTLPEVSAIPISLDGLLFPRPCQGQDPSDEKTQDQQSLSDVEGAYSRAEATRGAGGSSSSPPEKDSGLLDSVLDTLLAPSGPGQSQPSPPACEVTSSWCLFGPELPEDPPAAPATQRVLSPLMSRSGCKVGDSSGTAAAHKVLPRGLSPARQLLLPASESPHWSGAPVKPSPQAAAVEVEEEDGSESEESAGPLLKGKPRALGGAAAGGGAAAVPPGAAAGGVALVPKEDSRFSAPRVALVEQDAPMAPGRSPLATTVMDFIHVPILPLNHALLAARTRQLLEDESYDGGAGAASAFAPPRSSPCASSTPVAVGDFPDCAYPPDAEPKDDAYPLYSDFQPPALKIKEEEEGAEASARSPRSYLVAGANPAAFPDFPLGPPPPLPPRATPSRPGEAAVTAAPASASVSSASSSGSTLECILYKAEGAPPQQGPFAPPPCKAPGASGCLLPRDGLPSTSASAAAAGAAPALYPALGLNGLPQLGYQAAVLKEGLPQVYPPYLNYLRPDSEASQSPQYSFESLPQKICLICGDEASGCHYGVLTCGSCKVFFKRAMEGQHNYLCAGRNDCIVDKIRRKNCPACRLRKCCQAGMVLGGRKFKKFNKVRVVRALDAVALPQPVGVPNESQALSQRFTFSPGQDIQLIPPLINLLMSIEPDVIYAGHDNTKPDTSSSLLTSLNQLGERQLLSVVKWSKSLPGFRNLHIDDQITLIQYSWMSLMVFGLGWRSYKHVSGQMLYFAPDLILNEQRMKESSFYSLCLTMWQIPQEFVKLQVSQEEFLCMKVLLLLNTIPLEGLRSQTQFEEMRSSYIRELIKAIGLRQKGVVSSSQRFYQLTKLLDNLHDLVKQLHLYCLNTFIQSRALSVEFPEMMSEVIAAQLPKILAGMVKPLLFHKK
READOUT_LABEL: IC50

INPUT_SMILES	RESULT
COc1cccc(-c2ccc(C#N)c(C(F)(F)F)c2)c1	9.46 µM
N#Cc1ccc(-c2ccc(O)cc2)cc1C(F)(F)F	> 10 µM
COc1ccc(-c2ccc(C#N)c(C(F)(F)F)c2)cc1	5.52 µM
N#Cc1ccc(-c2ccccc2O)cc1C(F)(F)F	4.45 µM
COc1ccccc1-c1ccc(C#N)c(C(F)(F)F)c1	3.25 µM
